# ASSAY_NOTES: Effective permeability (Pe) across a hexadecane membrane (pH 6.8)
# Type: ADME
Log Pe reference
READOUT_LABEL: Log Pe (cm s-1)

compound="C=CCc1ccccc1OCC(O)CNC(C)C (stereo not given)" readout_label="Log Pe" data_value=-4
compound="Cc1ccccc1N1C(=O)c2cc(S(N)(=O)=O)c(Cl)cc2NC1C (stereo not given)" readout_label="Log Pe" data_value=-4.6
compound=CC(C)(C)NC[C@H](O)COc1nsnc1N1CCOCC1 readout_label="Log Pe" data_value=-4.4
compound="CC(=O)CC(c1ccccc1)c1c(O)c2ccccc2oc1=O (stereo not given)" readout_label="Log Pe" data_value=-3.8
compound=O=C(O)CN(CCN(CC(=O)O)Cc1ccccc1O)Cc1ccccc1O readout_label="Log Pe" data_value=-5.1
compound=CN/C(=N/CCSCc1nc[nH]c1C)NC#N readout_label="Log Pe" data_value=-4
compound=N=C(N)N/N=C/c1c(Cl)cccc1Cl readout_label="Log Pe" data_value=-5
compound=CN(C)CCCN1c2ccccc2Sc2ccc(Cl)cc21 readout_label="Log Pe" data_value=-3.7
compound="CCN1CCCC1CNC(=O)c1cc(S(N)(=O)=O)ccc1OC (stereo not given) [SULPIRIDE]" readout_label="Log Pe" data_value=-4.6
compound=NC(N)=Nc1nc(CSCCC(N)=NS(N)(=O)=O)cs1 readout_label="Log Pe" data_value=-4.6
compound="NS(=O)(=O)c1cc2c(cc1Cl)NCNS2(=O)=O [HYDROCHLOROTHIAZIDE]" readout_label="Log Pe" data_value=-4.7
compound="COCCc1ccc(OCC(O)CNC(C)C)cc1 (stereo not given)" readout_label="Log Pe" data_value=-4.2
compound="CC(C)(C)NCC(O)c1cc(O)cc(O)c1 (stereo not given)" readout_label="Log Pe" data_value=-4.1
compound=CN1C(C(=O)Nc2ccccn2)=C(O)c2ccccc2S1(=O)=O readout_label="Log Pe" data_value=-4
compound=CC(=O)[C@H]1CC[C@H]2[C@@H]3CCC4=CC(=O)CC[C@]4(C)[C@H]3CC[C@]12C readout_label="Log Pe" data_value=-3.8
